Documented melting point across a set of molecules

# Molecule, melting point
data = [
    ("Fc1ccc2[nH]cc(C3=CCN(CC4COc5ccc6nccnc6c5O4)CC3)c2c1 (stereo not drawn)", "> 200 °C (dec.)"),
    ("C1=C(c2c[nH]c3ccccc23)CCN(CC2COc3ccc4nccnc4c3O2)C1 (stereo not drawn)", "> 220 °C (dec.)"),
    ("CCc1nc2ccc3c(c2nc1CC)OC(CN1CC=C(c2c[nH]c4ccccc24)CC1)CO3 (stereo not drawn)", "> 120 °C (dec.)"),
    ("CCc1nc2ccc3c(c2nc1CC)OC(CN1CC=C(c2c[nH]c4ccc(F)cc24)CC1)CO3 (stereo not drawn)", "> 120 °C (dec.)"),
    ("Cc1nc2ccc3c(c2nc1C)OC(CN1CC=C(c2c[nH]c4ccc(F)cc24)CC1)CO3 (stereo not drawn)", "138 to 141 °C"),
    ("Cc1nc2ccc3c(c2nc1C)O[C@@H](CN1CC=C(c2c[nH]c4ccccc24)CC1)CO3", "153 to 155 °C"),
]
